Value source: paper PMC8966651

ASSAY_NAME: PMB plasma protein binding by ultrafiltration (Centrifree) of plasma from infected mice
Type: in vitro ADME
RUN_CONDITIONS: male, Swiss RjOrl, sc; mouse plasma, infected mice; ultrafiltration 4000 rpm 30 min room temperature, corrected for non-specific binding to membrane; LC-MS/MS; model estimate (%RSE)
Where a name gives a salt, the structure may show the parent alone. Bridge positions count the residues as written; N and C are the ends. Square brackets hold non-standard residues; d marks the D form. Peptide text beside a SMILES is read from it. * marks the point of attachment. X1 = CC[C@H](C)CCCCC(=O)*; Dab = NCC[C@H](N)C(=O)O

{"COMPOUND": "CC[C@H](C)CCCCC(=O)N[C@@H](CCN)C(=O)N[C@H](C(=O)N[C@@H](CCN)C(=O)N[C@H]1CCNC(=O)[C@H]([C@@H](C)O)NC(=O)[C@H](CCN)NC(=O)[C@H](CCN)NC(=O)[C@H](CC(C)C)NC(=O)[C@@H](Cc2ccccc2)NC(=O)[C@H](CCN)NC1=O)[C@@H](C)O [PMB, Polymyxin B sulfate] (X1-[Dab]T[Dab][Dab][Dab][dF]L[Dab][Dab]T; lactam 4-C)", "fraction unbound": 0.166}
